Target: ΔF508-CFTR (Homo sapiens, UniProt P13569, DEL508-508)
Construct: expressed in transfected cells; host or cells: NIH3T3 mouse fibroblasts stably expressing ΔF508-CFTR for the optical, whole-cell and single-channel assays; Fisher rat epithelial (FRT) cells for Ussing chamber follow-up
Sequence (P13569 with tags, fused parts or gaps DEL508-508): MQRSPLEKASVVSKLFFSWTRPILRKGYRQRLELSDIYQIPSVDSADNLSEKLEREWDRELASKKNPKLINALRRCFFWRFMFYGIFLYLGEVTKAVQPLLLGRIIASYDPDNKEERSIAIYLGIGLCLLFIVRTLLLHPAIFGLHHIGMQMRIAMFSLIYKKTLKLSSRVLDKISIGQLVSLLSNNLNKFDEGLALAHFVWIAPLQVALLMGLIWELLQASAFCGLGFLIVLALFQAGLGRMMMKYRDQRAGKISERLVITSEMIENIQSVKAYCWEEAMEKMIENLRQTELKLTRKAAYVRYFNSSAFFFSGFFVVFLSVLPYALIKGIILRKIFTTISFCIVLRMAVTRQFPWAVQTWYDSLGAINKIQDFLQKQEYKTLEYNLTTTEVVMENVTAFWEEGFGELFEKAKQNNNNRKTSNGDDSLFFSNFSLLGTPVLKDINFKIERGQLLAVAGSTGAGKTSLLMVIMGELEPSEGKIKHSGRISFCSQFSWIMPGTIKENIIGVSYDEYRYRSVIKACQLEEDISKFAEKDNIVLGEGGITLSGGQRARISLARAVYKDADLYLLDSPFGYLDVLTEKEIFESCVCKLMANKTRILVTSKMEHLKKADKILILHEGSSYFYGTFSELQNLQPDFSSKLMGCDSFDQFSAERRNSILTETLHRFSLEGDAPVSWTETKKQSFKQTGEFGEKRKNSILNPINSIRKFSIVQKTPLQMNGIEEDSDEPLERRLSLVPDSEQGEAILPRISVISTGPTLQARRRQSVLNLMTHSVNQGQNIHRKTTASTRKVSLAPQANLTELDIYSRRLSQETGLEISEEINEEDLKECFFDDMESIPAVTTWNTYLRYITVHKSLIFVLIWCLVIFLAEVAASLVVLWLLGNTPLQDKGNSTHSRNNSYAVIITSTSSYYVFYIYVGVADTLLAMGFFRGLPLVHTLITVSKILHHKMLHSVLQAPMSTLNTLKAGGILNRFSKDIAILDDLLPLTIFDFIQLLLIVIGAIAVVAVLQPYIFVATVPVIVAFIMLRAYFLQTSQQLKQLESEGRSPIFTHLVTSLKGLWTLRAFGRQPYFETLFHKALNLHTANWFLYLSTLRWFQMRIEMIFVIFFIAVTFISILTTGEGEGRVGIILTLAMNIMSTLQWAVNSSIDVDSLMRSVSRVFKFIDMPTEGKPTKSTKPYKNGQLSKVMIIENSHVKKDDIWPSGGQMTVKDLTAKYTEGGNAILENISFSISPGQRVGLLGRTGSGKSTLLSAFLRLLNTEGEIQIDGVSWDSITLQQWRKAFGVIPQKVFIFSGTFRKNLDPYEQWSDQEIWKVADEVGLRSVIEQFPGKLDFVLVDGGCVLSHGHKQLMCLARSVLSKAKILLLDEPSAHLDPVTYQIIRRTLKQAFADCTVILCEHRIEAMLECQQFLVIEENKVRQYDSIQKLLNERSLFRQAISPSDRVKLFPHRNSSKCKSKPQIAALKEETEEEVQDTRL
Test: Assays for ΔF508-CFTR correction and potentiator properties (membrane potential optical and electrophysiological methods)
Assay type: cell-based
Conditions: CFTR modulation, tested using the above methods
pEC50: −log10 of the molar value.
recorded_metric: pEC50

molecule=COc1cccc(-c2csc(NC(=O)c3ccc(C)cc3)n2)c1 recorded_metric=pEC50 measured_value="4.60 to 5.00"
molecule=O=C(Cc1ccccc1)Nc1ncc(Cc2cccc(Cl)c2)s1 recorded_metric=pEC50 measured_value="> 5.00"
molecule="O=C(Nc1ncc(Cc2cccc(Cl)c2)o1)C(c1ccccc1)C1CCCCC1 (centres unmarked)" recorded_metric=pEC50 measured_value="> 5.00"
molecule=COc1ccc(C(=O)Nc2nc(-c3ccccc3OC)cs2)cc1 recorded_metric=pEC50 measured_value="4.60 to 5.00"
molecule="O=C(Nc1nc(-c2ccccc2)c(-c2ccccc2)s1)C1CCOC1 (centres unmarked)" recorded_metric=pEC50 measured_value="> 5.00"

----------
Target: ΔF508-CFTR (Homo sapiens, UniProt P13569, DEL508-508)
Construct: Fisher rat epithelial (FRT) cells for Ussing chamber follow-up
Experiment: Assays for ΔF508-CFTR correction and potentiator properties (membrane potential optical and electrophysiological methods)
Details: CFTR modulation, tested using the above methods
recorded_metric: EC50

molecule="CCC(Nc1ccccc1)C(=O)Nc1ncc(Cc2ccccc2Cl)s1 (stereo not shown) [compound 251]" recorded_metric=EC50 measured_value="< 10 µM"
molecule="O=C(Nc1nc(-c2ccccc2)c(-c2ccccc2)s1)C1CCCO1 (stereo not shown) [compound 115]" recorded_metric=EC50 measured_value="< 10 µM"
molecule="O=C(Nc1nc(-c2ccccc2)c(-c2ccccc2)s1)C(c1ccccc1)C1CCCCC1 (stereo not shown) [compound 177]" recorded_metric=EC50 measured_value="10 to 25 µM"
molecule="O=C(Nc1nc(-c2ccccc2)cs1)C(c1ccccc1)C1CCCC1 (stereo not shown) [compound 169]" recorded_metric=EC50 measured_value="< 10 µM"
molecule="O=C(Nc1ncc(Cc2ccccc2)o1)C(c1ccccc1)C1CCCCC1 (stereo not shown) [compound 92]" recorded_metric=EC50 measured_value="< 10 µM"
molecule="O=C(Nc1nc(-c2cccs2)cs1)c1cccc(Br)c1 [compound 9]" recorded_metric=EC50 measured_value="< 10 µM"
molecule="CC(CC(=O)O)CC(=O)Nc1nc(-c2ccccc2)c(-c2ccccc2)s1 (stereo not shown) [compound 60]" recorded_metric=EC50 measured_value="10 to 25 µM"
molecule="CC(CC(=O)Nc1ncc(Cc2ccccc2Cl)s1)c1ccccc1 (stereo not shown) [compound 271]" recorded_metric=EC50 measured_value="< 10 µM"
molecule="COc1ccc(-c2ccc(C(=O)Nc3nc4ccc(OC)cc4s3)cc2)cc1 [compound 15]" recorded_metric=EC50 measured_value="< 10 µM"
molecule="O=C(Nc1ncc(Cc2ccccc2Cl)s1)c1ccccc1Cl [compound 19]" recorded_metric=EC50 measured_value="10 to 25 µM"
molecule="CC(C(=O)Nc1nc(-c2ccccc2)cs1)c1ccccc1 (stereo not shown) [compound 166]" recorded_metric=EC50 measured_value="10 to 25 µM"
molecule="CC(C)(C(=O)Nc1ncc(Cc2ccccc2Cl)s1)c1ccccc1 [compound 238]" recorded_metric=EC50 measured_value="< 10 µM"
molecule="COc1ccccc1-c1csc(NC(=O)c2cccc(C)c2)n1 [compound 5]" recorded_metric=EC50 measured_value="10 to 25 µM"
molecule="O=C(Nc1ncc(Cc2ccc(Cl)cc2)o1)C1Cc2ccccc21 (stereo not shown) [compound 145]" recorded_metric=EC50 measured_value="10 to 25 µM"
molecule="Cc1ccc(-c2nc(NC(=O)c3ccc(C#N)cc3)sc2-c2ccccc2)cc1 [compound 45]" recorded_metric=EC50 measured_value="10 to 25 µM"
molecule="CCOC(=O)c1csc(NC(=O)C(c2ccccc2)c2ccccc2)n1 [compound 280]" recorded_metric=EC50 measured_value="< 10 µM"
molecule="O=C(Nc1ncc(Cc2ccc(Cl)cc2)s1)c1ccccc1Cl [compound 33]" recorded_metric=EC50 measured_value="10 to 25 µM"
molecule="COC(=O)c1ccccc1C(=O)Nc1nc(-c2ccccc2)cs1 [compound 171]" recorded_metric=EC50 measured_value="< 10 µM"
molecule="Cc1cccc2sc(NC(=O)c3cccc(Br)c3)nc12 [compound 42]" recorded_metric=EC50 measured_value="< 10 µM"
molecule="CCOC(=O)C1CCCCN1C(C(=O)Nc1ncc(Cc2ccccc2Cl)s1)c1ccccc1 (stereo not shown) [compound 253]" recorded_metric=EC50 measured_value="25 to 60 µM"
molecule="COc1ccc(-c2ccc(C(=O)Nc3nccs3)cc2)cc1 [compound 13]" recorded_metric=EC50 measured_value="< 10 µM"
molecule="CCC(C(=O)Nc1ncc(Cc2ccccc2Cl)s1)N1CCOCC1 (stereo not shown) [compound 223]" recorded_metric=EC50 measured_value="25 to 60 µM"
molecule="Cc1ccc(C(=O)Nc2nc(-c3ccc(C)cc3)cs2)cc1 [compound 47]" recorded_metric=EC50 measured_value="10 to 25 µM"
molecule="CC[C@H](C(=O)Nc1ncc(Cc2cccc(Cl)c2)s1)c1ccccc1 [compound 204]" recorded_metric=EC50 measured_value="< 10 µM"
molecule="O=C(Nc1nc(-c2ccccc2)c(-c2ccccc2)s1)C1CC1 [compound 111]" recorded_metric=EC50 measured_value="< 10 µM"
molecule="CCOC(=O)Cc1csc(NC(=O)C(c2ccccc2)c2ccccc2)n1 [compound 281]" recorded_metric=EC50 measured_value="10 to 25 µM"
molecule="O=C(Nc1ncc(Cc2cc(Cl)ccc2Cl)s1)C1CCCCC1 [compound 30]" recorded_metric=EC50 measured_value="< 10 µM"
molecule="O=C(Nc1ncc(Cc2ccccc2Cl)s1)C(c1ccccc1)c1ccccc1 [compound 37]" recorded_metric=EC50 measured_value="< 10 µM"
molecule="CC(C(=O)Nc1nc(-c2ccccc2)cs1)N1CCN(S(=O)(=O)c2ccc(Br)cc2)CC1 (stereo not shown) [compound 199]" recorded_metric=EC50 measured_value="< 10 µM"
molecule="CCC(C(=O)Nc1ncc(Cc2ccccc2C#N)s1)c1ccccc1 (stereo not shown) [compound 258]" recorded_metric=EC50 measured_value="10 to 25 µM"
molecule="O=C(Cc1ccccc1)Nc1ncc(Cc2ccccc2Cl)o1 [compound 194]" recorded_metric=EC50 measured_value="25 to 60 µM"
molecule="CN(C)C(Cc1ccccc1)C(=O)Nc1ncc(Cc2ccccc2C#N)s1 (stereo not shown) [compound 277]" recorded_metric=EC50 measured_value="25 to 60 µM"
molecule="O=C(Nc1ncc(Cc2cccc(Cl)c2)s1)C(c1ccccc1)c1ccccc1 [compound 124]" recorded_metric=EC50 measured_value="< 10 µM"
molecule="Cc1cccc(C(=O)Nc2nc(-c3ccccc3Cl)cs2)c1 [compound 228]" recorded_metric=EC50 measured_value="10 to 25 µM"
molecule="O=C(Nc1ncc(Cc2ccccc2Cl)s1)C(c1ccccc1)N1CCCC(CO)C1 (stereo not shown) [compound 244]" recorded_metric=EC50 measured_value="< 10 µM"
molecule="CC(CC(=O)Nc1ncc(Cc2ccccc2C#N)s1)c1ccccc1 (stereo not shown) [compound 276]" recorded_metric=EC50 measured_value="25 to 60 µM"
molecule="CC(C)C(C(=O)Nc1nc(-c2ccncc2)cs1)c1ccc(F)cc1F (stereo not shown) [compound 34]" recorded_metric=EC50 measured_value="10 to 25 µM"

----------
Target: ΔF508-CFTR (Homo sapiens, UniProt P13569, DEL508-508)
Construct: expressed in transfected cells; host or cells: NIH3T3 mouse fibroblasts stably expressing ΔF508-CFTR for the optical, whole-cell and single-channel assays; Fisher rat epithelial (FRT) cells for Ussing chamber follow-up
Experiment: Assays for ΔF508-CFTR correction and potentiator properties (membrane potential optical and electrophysiological methods)
Assay type: cell-based
Settings: CFTR modulation, % Efficacy
recorded_metric: % Activity

compound="O=C(Nc1nc(-c2ccccc2)c(-c2ccccc2)s1)C1CCCO1 (centres unmarked) [compound 115]" measured_value="+++ (“+++” means >100%)"
compound="CC(C)C(C(=O)Nc1ncc(Cc2ccccc2Cl)s1)c1ccccc1 (centres unmarked) [compound 103]" measured_value="+++ (“+++” means >100%)"

----------
Biological target: ΔF508-CFTR (Homo sapiens, UniProt P13569, DEL508-508)
Construct: expressed in transfected cells; host or cells: NIH3T3 mouse fibroblasts stably expressing ΔF508-CFTR for the optical, whole-cell and single-channel assays; Fisher rat epithelial (FRT) cells for Ussing chamber follow-up
Assay: Assays for ΔF508-CFTR correction and potentiator properties (membrane potential optical and electrophysiological methods)
Format: cell-based
Conditions: CFTR modulation, % Efficacy
recorded_metric: % Activity

compound="CC1CCCN(C(C(=O)Nc2ncc(Cc3ccccc3Cl)s2)c2ccccc2)C1 (stereo not drawn) [compound 243]" target_or_test_system="ΔF508-CFTR (Homo sapiens, UniProt P13569, DEL508-508)" measured_value="+++ (“+++” means >100%)"
compound="COc1ccc(C(=O)Nc2nc(-c3ccccc3)c(-c3ccccc3)s2)cc1 [compound 72]" target_or_test_system="ΔF508-CFTR (Homo sapiens, UniProt P13569, DEL508-508)" measured_value="+++ (“+++” means >100%)"
